- ASSAY INFO: NCI Yeast Anticancer Drug Screen. Data for the bub3 strain (AID 167)
- DETAILS: S. cerevisiae bub3 mutant strain, at 100.0 µM
Compounds without any hit were thinned out: in the full panel of roughly 79,000, 15% have a hit. The source made the active and inactive calls. No stated cut-off is given here; in the data, active means growth inhibition above about 70%; inactive means the rest.
Write down one outcome, taken from Yes for active, No for inactive

Prompt line: // return assay outcome for `Cc1cc(C(C)(C)CC(C)(C)C)cc(O)c1O`
Response line: Yes

* * *

- ASSAY INFO: NCI Yeast Anticancer Drug Screen. Data for the CLN2oe strain (AID 163);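 further: 0% = growth of vehicle-only control cultures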
- DETAILS: S. cerevisiae CLN2oe strain, at 33.0 µM, active compounds read high
- Protocol: Growth inhibition of yeast strains with defined genetic alterations is measured as a screen for potential anti-cancer activity. Selected strains with alterations in DNA damage repair or cell cycle control were exposed to compounds and growth inhibition was measured relative to vehicle treated controls. The strain used in this assay is CLN2oe
The panel holds about 79,000 compounds, 15% with a hit somewhere; the sample as a whole holds those more often.
REPORTED PROPERTY: growth inhibition (%)
Answers are plain numbers, in %.

Completed entries (count: 4):
>  <SAMPLE SMILES>
S=c1cn[nH]c2ccc(Br)cc12

>  <growth inhibition / %>
40

$$$$
>  <SAMPLE SMILES>
OB(O)c1ccccc1C#Cc1ccccc1B(O)O

>  <growth inhibition / %>
38

$$$$
>  <SAMPLE SMILES>
BrCc1ccccc1C(c1ccccc1)c1ccccc1

>  <growth inhibition / %>
97

$$$$
>  <SAMPLE SMILES>
O=C1c2ccccc2C(=O)c2cc(S(=O)(=O)Nc3ccccc3)ccc21

>  <growth inhibition / %>
7

$$$$

# ---- query compound ----
For `COc1ccc(/C=C2\SC(=S)N(C=C3C(=O)NC(=S)NC3=O)C2=O)cc1OC` the compound record lists growth inhibition as 85
